Molecular target: GLUT3 transporter (DLD1-GLUT1−/− cells) (Homo sapiens, UniProt P11169)
Construct: DLD1-GLUT1−/− cells (Horizon discovery) for GLUT3 transporter; host or cells: DLD1-GLUT1−/−
Sequence (P11169 whole entry): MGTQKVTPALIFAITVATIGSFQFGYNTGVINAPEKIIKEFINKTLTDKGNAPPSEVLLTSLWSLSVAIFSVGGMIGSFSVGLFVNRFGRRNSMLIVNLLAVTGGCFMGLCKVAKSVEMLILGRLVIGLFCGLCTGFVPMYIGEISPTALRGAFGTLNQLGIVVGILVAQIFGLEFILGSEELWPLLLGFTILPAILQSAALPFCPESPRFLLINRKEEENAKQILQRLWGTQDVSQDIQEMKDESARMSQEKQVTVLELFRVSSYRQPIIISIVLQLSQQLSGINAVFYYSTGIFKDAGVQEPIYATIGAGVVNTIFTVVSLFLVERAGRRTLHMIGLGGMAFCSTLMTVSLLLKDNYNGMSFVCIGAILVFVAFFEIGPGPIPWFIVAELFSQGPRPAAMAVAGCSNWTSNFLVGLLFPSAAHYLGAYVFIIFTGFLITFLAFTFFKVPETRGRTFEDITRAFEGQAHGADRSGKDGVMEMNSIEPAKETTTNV
Assay: Glucose transporter selectivity assay
Format: cell-based
Details: 10 mM glucose, 1 uM Rotenone, 15 min, read-out: IC50 (nM) DLD-Glut1−/− Glut3
Quantity name: IC50 (nM)

In [3]: df
Out[3]:
                                   compound  quantity_name  data_value
0  CC1(C)Cc2nc3sc4c(NCCc5ccc6[nH]cnc6c5)ncnc4c3cc2CO1 [Compound 145]           IC50           2

###

Catalogue of molecules with associated EC50
System: SDH-KO-HRAS cells (SDHB-deficient)
Assay: Cellular / differential toxicity assay (CellTiter-Glo, 3 days)
Type: cell-based, murine
Details: Mus musculus, 72 h, toxicity, SDH-KO cells, 3 days, CellTiter-Glo; read-out: EC50 (uM) SDH-KO-HTAS-C17
Quantity name: EC50

In [3]: df
Out[3]:
                                    molecule  quantity_name  data_value
 0  CC(Cc1ccccc1)Nc1ncnc2c1sc1nc3c(cc12)COC(C)(C)C3 (stereo not shown) [Compound 276]           EC50     > 10 µM
 1  COc1ccc(CCNc2ncnc3c2sc2nc4c(cc23)COC(C)(C)C4)cc1F [Compound 122]           EC50      < 1 µM
 2  CC1(C)Cc2nc3sc4c(NCCc5ccc(-c6cncs6)cc5)ncnc4c3cc2CO1 [Compound 148]           EC50      < 1 µM
 3  CCN(CC)c1nc(C)nc2c1sc1nc3c(cc12)COC(C)(C)C3 [Compound 253]           EC50     > 10 µM
 4  COc1ccc(CCNc2ncnc3c2sc2nc4c(cc23)CC(C(=O)O)CC4)cc1F (stereo not shown) [Compound 209]           EC50     > 10 µM
 5  CCN(CC)CCNc1nc(C)nc2c1sc1nc3c(cc12)COC(C)(C)C3 [Compound 234]           EC50     > 10 µM
 6  CC(=O)Nc1ccc(CCNc2ncnc3c2sc2nc4c(cc23)COC(C)(C)C4)cc1 [Compound 111]           EC50      < 1 µM
 7  COc1ccc(CCNc2ncnc3c2sc2nc4c(cc23)COC(C)(C)C4)cc1C(F)(F)F [Compound 161]           EC50  3 to 10 µM
 8  CC1(C)Cc2nc3sc4c(NCCc5ccc(C(=O)O)cc5)ncnc4c3cc2CO1 [Compound 159]           EC50     > 10 µM
 9  CN(C)C(=O)c1ccc(CCNc2ncnc3c2sc2nc4c(cc23)COC(C)(C)C4)cc1 [Compound 150]           EC50   1 to 3 µM
10  CC1(C)Cc2nc3sc4c(NCCc5ccc(N)c([N+](=O)[O-])c5)ncnc4c3cc2CO1 [Compound 205]           EC50      < 1 µM
11  CCCCCCCNc1ncnc2c1sc1nc3c(cc12)COC(C)(C)C3 [Compound 255]           EC50     > 10 µM
12  CC(C)(C)Nc1ncnc2c1sc1nc3c(cc12)COC(C)(C)C3 [Compound 259]           EC50     > 10 µM
13  CC1(C)Cc2nc3sc4c(NCCc5ccc(O)c(F)c5)ncnc4c3cc2CO1 [Compound 140]           EC50   1 to 3 µM
14  CC(C)Nc1ncnc2c1sc1nc3c(cc12)COC(C)(C)C3 [Compound 134]           EC50     > 10 µM
15  COc1ccc(CCNc2ncnc3c4c(sc23)=NC2CC(C)(C)OCC2C=4)c(OC)c1 (stereo not shown) [Compound 125]           EC50   1 to 3 µM
16  CN1CCC(OCc2c3c(nc4sc5c(NCCc6ccc7[nH]cnc7c6)ncnc5c24)CC(C)(C)OC3)CC1 [Compound 328]           EC50  3 to 10 µM
17  COCCNc1ncnc2c1sc1nc3c(cc12)COC(C)(C)C3 [Compound 283]           EC50     > 10 µM
18  CC1(C)Cc2nc3sc4c(NCCc5ccc6[nH]cnc6c5)ncnc4c3cc2CO1 [Compound 145]           EC50      < 1 µM
19  Cc1nc(NCCN2CCOCC2)c2sc3nc4c(cc3c2n1)COC(C)(C)C4 [Compound 230]           EC50     > 10 µM
20  Cc1nc(NC(C)CCc2ccccc2)c2sc3nc4c(cc3c2n1)COC(C)(C)C4 (stereo not shown) [Compound 252]           EC50     > 10 µM
21  Cc1nc(NCCCO)c2sc3nc4c(cc3c2n1)COC(C)(C)C4 [Compound 222]           EC50     > 10 µM
22  CC(C)c1nc2cc(CCNc3ncnc4c3sc3nc5c(cc34)COC(C)(C)C5)ccc2[nH]1 [Compound 188]           EC50  3 to 10 µM
23  COCCOCCOCCOCCNCc1c2c(nc3sc4c(NCCc5ccc6[nH]cnc6c5)ncnc4c13)CC(C)(C)OC2 [Compound 321]           EC50   1 to 3 µM
24  CSCc1c2c(nc3sc4c(NCCc5ccc6[nH]cnc6c5)ncnc4c13)CC(C)(C)OC2 [Compound 319]           EC50      < 1 µM
25  CC(=O)OC(C)c1nc2cc(CCNc3ncnc4c3sc3nc5c(cc34)COC(C)(C)C5)ccc2[nH]1 (stereo not shown) [Compound 185]           EC50   1 to 3 µM
26  Cc1nc(NC(C)c2ccccc2)c2sc3nc4c(cc3c2n1)COC(C)(C)C4 (stereo not shown) [Compound 272]           EC50     > 10 µM
27  CC1(C)Cc2nc3sc4c(NCCc5ccc6[nH]c(CO)nc6c5)ncnc4c3cc2CO1 [Compound 179]           EC50      < 1 µM
28  CC1(C)Cc2nc3sc4c(NC5CCCCC5)ncnc4c3cc2CO1 [Compound 261]           EC50     > 10 µM
29  CCCCCCCNc1nc(C)nc2c1sc1nc3c(cc12)COC(C)(C)C3 [Compound 241]           EC50     > 10 µM
30  CCCN(CCC)c1ncnc2c1sc1nc3c(cc12)COC(C)(C)C3 [Compound 300]           EC50  3 to 10 µM
31  COc1ccc(CCNC(=O)c2sc3nc4c(cc3c2N)COC(C)(C)C4)cc1F [Compound 208]           EC50     > 10 µM
32  CC1(C)Cc2nc3sc4c(NCCc5ccc6[nH]cnc6c5)nc(-c5ccccc5)nc4c3cc2CO1 [Compound 315]           EC50   1 to 3 µM
33  CC1(C)Cc2nc3sc4c(NCCc5ccc6occc6c5)ncnc4c3cc2CO1 [Compound 202]           EC50      < 1 µM

###

Tested on: SDH-KO-HRAS cells (SDHB-deficient)
Assay: Cellular / differential toxicity assay (CellTiter-Glo, 3 days)
Assay type: cell-based, murine
Settings: Mus musculus, 72 h, SDH-KO cells, 72 hours, Example 7; read-out: EC50 Tox
molecules and their reported EC50
Quantity name: EC50

                                   molecule  data_value
0  CC1(C)Cc2nc3sc4c(NCCc5ccc6[nH]cnc6c5)ncnc4c3cc2CO1 [Compound 145]     1800 pM
1  COCc1c2c(nc3sc4c(NCCc5ccc6[nH]cnc6c5)ncnc4c13)CC(C)(C)OC2 [Compound 308]        4 pM

###

Target: GLUT2 transporter (DLD1-GLUT1−/− overexpressing hGLUT2 cells) (Homo sapiens, UniProt P11168)
Construct: expressed in transfected cells; host or cells: DLD1-GLUT1−/−
Sequence (P11168 whole entry): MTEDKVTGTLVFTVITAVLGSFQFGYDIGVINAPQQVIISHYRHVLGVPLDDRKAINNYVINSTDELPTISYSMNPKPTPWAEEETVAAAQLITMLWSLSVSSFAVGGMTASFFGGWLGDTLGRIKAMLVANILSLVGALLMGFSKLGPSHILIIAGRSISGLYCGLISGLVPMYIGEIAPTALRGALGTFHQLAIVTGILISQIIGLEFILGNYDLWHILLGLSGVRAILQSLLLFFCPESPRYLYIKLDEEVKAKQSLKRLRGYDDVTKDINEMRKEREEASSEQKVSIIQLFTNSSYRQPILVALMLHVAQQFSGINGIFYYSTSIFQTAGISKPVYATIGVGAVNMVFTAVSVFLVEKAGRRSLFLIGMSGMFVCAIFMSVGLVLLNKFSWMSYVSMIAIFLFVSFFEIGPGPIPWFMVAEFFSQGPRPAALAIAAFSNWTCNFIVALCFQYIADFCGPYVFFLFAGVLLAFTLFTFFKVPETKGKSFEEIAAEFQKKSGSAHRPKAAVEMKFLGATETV
Test: Glucose transporter selectivity assay
Type: cell-based
Conditions: 10 mM fructose, 1 uM Rotenone, 15 min, read-out: IC50 (nM) DLD-Glut1−/− (Glut2) Glut2
Quantity name: IC50

In [3]: df
Out[3]:
                         compound_structure  quantity_name  data_value
0  CC1(C)Cc2nc3sc4c(NCCc5ccc6[nH]cnc6c5)ncnc4c3cc2CO1           IC50       14 nM

###

System: SDH-KO-HRAS cells (SDHB-deficient)
Test: Cellular / differential toxicity assay (CellTiter-Glo, 3 days)
Type: cell-based, murine
Settings: Mus musculus, 72 h, toxicity, SDH-KO cells, 3 days, CellTiter-Glo; read-out: EC50 (uM) SDH-KO-HTAS-C17
Quantity name: EC50

In [3]: df
Out[3]:
                         compound_structure  data_value
0  CC1(C)Cc2nc3sc4c(NCCc5ccc(-c6ncco6)cc5)ncnc4c3cc2CO1      < 1 µM
1  COCCOCCOCCNCc1c2c(nc3sc4c(NCCc5ccc6[nH]cnc6c5)ncnc4c13)CC(C)(C)OC2  3 to 10 µM
2  CN(C)CCCNc1ncnc2c1sc1nc3c(cc12)COC(C)(C)C3     > 10 µM
3  c1ccc(-c2nc(NCCc3ccc4[nH]cnc4c3)c3sc4ncccc4c3n2)cc1     > 10 µM
4  Cc1nc(N2CCCCC2)c2sc3nc4c(cc3c2n1)COC(C)(C)C4     > 10 µM
5  CC1(C)Cc2nc3sc4c(NCCc5ccc(OC(N)=O)cc5)ncnc4c3cc2CO1      < 1 µM
6  CC(C)COCc1c2c(nc3sc4c(NCCc5ccc6[nH]cnc6c5)ncnc4c13)CC(C)(C)OC2      < 1 µM
7  CNc1ccc(CCNc2ncnc3c2sc2nc4c(cc23)COC(C)(C)C4)cc1[N+](=O)[O-]      < 1 µM

Recorded values, source patent US20230084927A1.
